Tested on: HIT-T15
Assay: Cytoprotective activity in hamster HIT-T15 cells assessed as inhibition of IFN-gamma/TNFalpha/IL1beta-induced cell death at 1 to 100 nM after 24 hrs by MTT assay relative to control
Type: functional, cell-based
Details: Mesocricetus auratus
Calls of active or inactive are those of the source. The rule behind the calls is not given here.
Choose one outcome from this list and give only that: 1.0 (active), 0.0 (inactive)

MOL: CC(C)[C@@H](NC(=O)[C@H](CCCNC(=N)N)NC(=O)[C@H](CCC(N)=O)NC(=O)[C@H](Cc1cnc[nH]1)NC(=O)[C@H](CCC(=O)O)NC(=O)[C@@H]1CCCN1C(=O)[C@@H](N)CO)C(=O)N[C@@H](CCC(N)=O)C(N)=O
SUBJECT OF TEST: HIT-T15
ASSIGNED CLASS: 0.0
--
MOL: CC(C)[C@@H](NC(=O)[C@H](N)CCC(N)=O)C(=O)N[C@H](CCCNC(=N)N)C(=O)N[C@H](CCC(N)=O)C(=O)N[C@H](Cc1cnc[nH]1)C(=O)N[C@H](CCC(=O)O)C(=O)N1CCC[C@@H]1C(=O)N[C@H](CO)C(N)=O
SUBJECT OF TEST: HIT-T15
ASSIGNED CLASS: 0.0
--
MOL: CC(C)[C@H](NC(=O)[C@H](CCCNC(=N)N)NC(=O)[C@H](CCC(N)=O)NC(=O)[C@H](Cc1cnc[nH]1)NC(=O)[C@H](CCC(=O)O)NC(=O)[C@@H]1CCCN1C(=O)[C@@H](N)CO)C(=O)N[C@@H](CCC(N)=O)C(N)=O
SUBJECT OF TEST: HIT-T15
ASSIGNED CLASS: 1.0

Next up:
// query Hey, what did the test say about CC(C)[C@H](NC(=O)[C@H](CCCNC(=N)N)NC(=O)[C@H](CCC(N)=O)NC(=O)[C@@H](Cc1cnc[nH]1)NC(=O)[C@H](CCC(=O)O)NC(=O)[C@@H]1CCCN1C(=O)[C@@H](N)CO)C(=O)N[C@@H](CCC(N)=O)C(N)=O ?
// result 0.0
